- measuredTarget: APOL1 (Homo sapiens, UniProt O14791)
- Sequence (O14791 whole entry S342G/I384M, form open): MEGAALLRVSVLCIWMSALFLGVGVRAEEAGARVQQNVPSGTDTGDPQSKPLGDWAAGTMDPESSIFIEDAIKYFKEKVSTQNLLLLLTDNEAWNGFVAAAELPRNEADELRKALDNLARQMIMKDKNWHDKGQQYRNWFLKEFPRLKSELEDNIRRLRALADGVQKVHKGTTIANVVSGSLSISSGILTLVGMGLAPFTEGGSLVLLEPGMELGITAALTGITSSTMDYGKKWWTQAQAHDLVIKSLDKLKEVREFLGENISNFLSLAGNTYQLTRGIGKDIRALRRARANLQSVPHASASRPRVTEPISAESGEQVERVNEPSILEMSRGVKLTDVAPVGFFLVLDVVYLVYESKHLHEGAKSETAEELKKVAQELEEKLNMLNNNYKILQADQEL
- assayProtocol: Multi-Tox Assay (MultiTox-Fluor Multiplex Cytotoxicity Assay in tet-inducible APOL1 T-REx-HEK293 cells; Table 46 does not say which APOL1 variant G0/G1/G2)
- Assay type: cell-based
- conditionLabel: APOL1 variant not given
Item-by-item account of Multi-Tox Assay Max Activity (%)
Note: unit % is implicit; provide only the numeric part.

Here are 3 compounds together with their reported answers.
C[C@H]1C[C@@]2(C[C@@H](c3ccc(C(F)(F)F)nc3)N1)OCCc1cc(Cl)sc12 (racemic) [Compound 123] : 100.0
C[C@H]1C[C@@]2(C[C@@H](c3cn(CC4CCCCO4)nn3)N1)OCC(F)(F)c1cc(Cl)sc12 (stereo partly shown) [Compound 343] : 97.0
C[C@H]1C[C@@]2(C[C@@H](c3cn(Cc4ccc(C#N)cc4)nn3)N1)OC[C@@H](O)c1cc(Cl)sc12 [Compound 253] : 100.0

Which measured Multi-Tox Assay Max Activity (%) value corresponds to CC1COC2(C[C@@H](c3cn(C)nn3)N[C@@H](C)C2)c2cc(Cl)sc21 (stereo in doubt) [Compound 12] ? 99.3

Which measured Multi-Tox Assay Max Activity (%) value corresponds to C[C@H]1C[C@@]2(C[C@@H](c3cn(Cc4n[nH]c5ccccc45)nn3)N1)OC[C@@H](O)c1cc(Cl)sc12 [Compound 232] ? 100.0

Which measured Multi-Tox Assay Max Activity (%) value corresponds to C[C@H]1C[C@@]2(C[C@@H](c3cn(Cc4ncnc5[nH]ccc45)nn3)N1)OCC(F)(F)c1cc(Cl)sc12 [Compound 350] ? 99.0

Which measured Multi-Tox Assay Max Activity (%) value corresponds to COc1ccc([C@@H]2C[C@]3(C[C@H](C)N2)OCCc2cc(Cl)sc23)c(F)c1 (racemic) [Compound 44] ? 99.5
